TESTED ON: human TPO (Homo sapiens)
Construct: expressed in transfected cells; host or cells: HEK293T (HEK-TPOA7 clone), whole-cell lysate in 0.1% sodium deoxycholate
Sequence (P07202 19-933): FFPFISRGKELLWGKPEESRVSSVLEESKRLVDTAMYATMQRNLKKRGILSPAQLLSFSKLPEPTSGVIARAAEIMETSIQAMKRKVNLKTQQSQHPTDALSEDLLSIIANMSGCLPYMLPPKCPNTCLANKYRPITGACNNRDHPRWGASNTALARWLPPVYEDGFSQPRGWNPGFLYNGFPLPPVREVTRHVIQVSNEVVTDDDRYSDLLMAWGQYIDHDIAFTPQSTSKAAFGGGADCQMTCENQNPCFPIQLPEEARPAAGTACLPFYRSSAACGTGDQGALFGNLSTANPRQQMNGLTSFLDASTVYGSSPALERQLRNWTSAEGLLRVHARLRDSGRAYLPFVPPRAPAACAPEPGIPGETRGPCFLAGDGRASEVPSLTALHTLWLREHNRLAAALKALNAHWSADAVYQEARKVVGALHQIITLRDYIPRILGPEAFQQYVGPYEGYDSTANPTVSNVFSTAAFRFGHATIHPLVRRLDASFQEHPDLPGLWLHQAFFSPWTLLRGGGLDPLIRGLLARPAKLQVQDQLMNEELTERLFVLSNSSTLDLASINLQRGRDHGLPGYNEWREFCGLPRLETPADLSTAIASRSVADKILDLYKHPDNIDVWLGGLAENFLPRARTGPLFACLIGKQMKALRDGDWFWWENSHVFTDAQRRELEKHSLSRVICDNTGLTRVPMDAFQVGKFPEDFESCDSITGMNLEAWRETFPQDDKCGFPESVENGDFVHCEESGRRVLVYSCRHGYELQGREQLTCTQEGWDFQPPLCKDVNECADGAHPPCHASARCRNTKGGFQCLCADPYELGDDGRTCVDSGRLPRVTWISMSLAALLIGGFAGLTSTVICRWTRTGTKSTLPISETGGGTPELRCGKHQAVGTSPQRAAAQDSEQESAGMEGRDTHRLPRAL
ASSAY INFO: standard Amplex UltraRed (AUR) TPO assay, HEK-TPOA7 cell lysate, fluorescence
Assay type: biochemical
RECORDED CONDITIONS: no modification, read-out: IC50 (± standard deviation)
READOUT LABEL: IC50

Query the reported IC50 for human TPO (Homo sapiens); item: Oc1cc(Cl)ccc1Oc1ccc(Cl)cc1Cl [TCS, Triclosan] 199 µM
